# Tested on: P388 mouse leukemia cells
# Details: 92 h
Where a SMILES comes first, the peptide text is derived from it. [ ]: non-standard residue; d: D form. The star is where a group is joined. NHCH2CH2OH = OCCN*; For = O=C*
Measurement label: cell viability/% (%)
Kindly provide the numeric value in % only, without the unit symbol.

(Q) Data request, read-out cell viability/%, for CC(C)C[C@@H](NC(=O)[C@H](C)NC(=O)CNC(=O)[C@@H](NC=O)C(C)C)C(=O)N[C@@H](C)C(=O)N[C@H](CC(C)C)C(=O)N[C@H](C(=O)N[C@H](CC(C)C)C(=O)N[C@@H](Cc1c[nH]c2ccccc12)C(=O)N[C@H](CC(C)C)C(=O)N[C@@H](Cc1c[nH]c2ccccc12)C(=O)N[C@@H](C(=O)N[C@@H](Cc1c[nH]c2ccccc12)C(=O)N[C@@H](C(=O)N[C@@H](Cc1c[nH]c2ccccc12)C(=O)NCCO)C(C)C)C(C)C)C(C)C [compound 11214] (For-VGA[dL]A[dL]V[dL]W[dL]W[dV]W[dV]W-NHCH2CH2OH)
(A) 2.6
